Molecular target: Receptor-type tyrosine-protein phosphatase F (Homo sapiens, UniProt P10586)
Sequence (P10586 whole entry, the tested form may be a part): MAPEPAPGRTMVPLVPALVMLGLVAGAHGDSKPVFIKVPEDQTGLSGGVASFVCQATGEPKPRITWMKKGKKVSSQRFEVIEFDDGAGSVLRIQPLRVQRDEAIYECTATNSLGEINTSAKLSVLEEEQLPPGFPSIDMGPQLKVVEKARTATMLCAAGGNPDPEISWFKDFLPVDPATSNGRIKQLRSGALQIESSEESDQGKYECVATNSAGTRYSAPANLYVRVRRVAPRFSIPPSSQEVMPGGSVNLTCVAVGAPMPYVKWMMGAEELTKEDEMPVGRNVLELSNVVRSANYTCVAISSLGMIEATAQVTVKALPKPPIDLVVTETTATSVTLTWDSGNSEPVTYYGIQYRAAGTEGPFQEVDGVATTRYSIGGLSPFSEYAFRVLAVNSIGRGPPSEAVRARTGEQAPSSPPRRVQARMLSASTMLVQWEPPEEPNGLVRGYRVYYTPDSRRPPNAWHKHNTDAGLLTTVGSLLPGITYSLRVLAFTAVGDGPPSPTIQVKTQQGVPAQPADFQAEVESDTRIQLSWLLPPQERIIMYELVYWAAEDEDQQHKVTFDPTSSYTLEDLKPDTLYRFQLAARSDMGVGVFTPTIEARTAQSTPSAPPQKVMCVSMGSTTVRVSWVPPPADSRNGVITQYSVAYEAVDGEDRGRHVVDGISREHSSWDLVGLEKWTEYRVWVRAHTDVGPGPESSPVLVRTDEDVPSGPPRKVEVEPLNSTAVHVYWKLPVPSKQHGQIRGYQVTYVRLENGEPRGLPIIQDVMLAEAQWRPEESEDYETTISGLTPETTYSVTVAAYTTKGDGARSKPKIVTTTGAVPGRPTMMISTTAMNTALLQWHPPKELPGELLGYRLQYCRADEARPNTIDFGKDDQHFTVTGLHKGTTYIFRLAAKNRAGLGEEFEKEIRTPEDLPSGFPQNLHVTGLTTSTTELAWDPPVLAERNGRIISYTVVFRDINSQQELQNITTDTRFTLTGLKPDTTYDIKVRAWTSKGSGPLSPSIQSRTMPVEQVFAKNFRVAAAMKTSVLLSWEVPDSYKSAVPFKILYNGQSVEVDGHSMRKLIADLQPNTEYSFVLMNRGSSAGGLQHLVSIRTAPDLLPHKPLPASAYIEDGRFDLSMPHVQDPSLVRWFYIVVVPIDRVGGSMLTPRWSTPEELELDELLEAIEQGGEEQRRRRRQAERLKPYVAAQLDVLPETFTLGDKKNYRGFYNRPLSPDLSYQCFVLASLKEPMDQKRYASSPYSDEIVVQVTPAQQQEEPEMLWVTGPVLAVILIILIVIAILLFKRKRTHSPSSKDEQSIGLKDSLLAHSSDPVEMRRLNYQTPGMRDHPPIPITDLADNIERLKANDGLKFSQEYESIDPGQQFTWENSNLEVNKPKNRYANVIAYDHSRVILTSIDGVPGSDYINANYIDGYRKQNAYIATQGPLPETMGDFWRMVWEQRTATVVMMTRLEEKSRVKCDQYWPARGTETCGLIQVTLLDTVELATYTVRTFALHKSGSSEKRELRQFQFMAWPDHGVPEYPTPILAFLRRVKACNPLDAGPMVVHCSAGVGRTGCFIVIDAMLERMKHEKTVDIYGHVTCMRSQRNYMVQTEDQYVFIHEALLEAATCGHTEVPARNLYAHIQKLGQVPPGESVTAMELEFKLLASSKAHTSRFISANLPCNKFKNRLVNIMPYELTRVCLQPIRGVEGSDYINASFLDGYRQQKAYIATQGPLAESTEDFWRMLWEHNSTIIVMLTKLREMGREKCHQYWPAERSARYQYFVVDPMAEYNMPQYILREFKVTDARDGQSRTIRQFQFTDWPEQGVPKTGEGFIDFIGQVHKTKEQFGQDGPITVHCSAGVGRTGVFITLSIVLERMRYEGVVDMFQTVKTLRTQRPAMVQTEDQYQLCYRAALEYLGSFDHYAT
Experiment: Inhibition of human recombinant GST-tagged LAR (catalytic domain 1275 to 1613 residues) expressed in Escherichia coli BL21 (DE3) using pNPP as substrate measured for 2 mins by colorimetric analysis
readout type: IC50 (µM)
Please reply with the bare figure in µM and do not write the unit itself.

Qu. Which IC50 is listed for O=C(O)C(Cc1c[nH]c2ccccc12)N1C(=O)/C(=C/c2ccc3cc(OCc4ccc(Br)cc4)ccc3c2)SC1=S (stereo unspecified) ?
Ans. 29.1

* * *

Molecular target: Tyrosine-protein phosphatase non-receptor type 1 (Homo sapiens)
Sequence (P18031 whole entry): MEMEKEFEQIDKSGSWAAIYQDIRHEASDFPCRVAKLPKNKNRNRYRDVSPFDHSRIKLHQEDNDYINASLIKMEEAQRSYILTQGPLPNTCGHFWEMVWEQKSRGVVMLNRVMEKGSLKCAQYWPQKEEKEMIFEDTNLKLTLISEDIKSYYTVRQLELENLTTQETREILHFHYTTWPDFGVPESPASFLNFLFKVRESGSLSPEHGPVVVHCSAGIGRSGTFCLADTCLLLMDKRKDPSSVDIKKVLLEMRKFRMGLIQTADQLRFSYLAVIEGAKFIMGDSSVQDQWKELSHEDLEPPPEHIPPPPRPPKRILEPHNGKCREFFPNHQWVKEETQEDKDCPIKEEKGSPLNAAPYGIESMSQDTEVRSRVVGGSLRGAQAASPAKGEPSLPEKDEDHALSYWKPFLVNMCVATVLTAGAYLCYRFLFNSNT
Assay: Competitive inhibition of human recombinant GST-tagged PTP1B expressed in Escherichia coli BL21 (DE3) using pNPP as substrate assessed as inhibitor constant measured for 2 mins by colorimetric analysis
readout type: pKi
By convention, pKi is the negative base-10 log of a molar concentration.

Qu. Which pKi is listed for O=C(O)C(Cc1c[nH]c2ccccc12)N1C(=O)/C(=C/c2ccc3cc(OCc4ccc(Br)cc4)ccc3c2)SC1=S (stereo unspecified) ?
Ans. 7.15

* * *

Test system: Staphylococcus aureus
Assay: Antibacterial activity against Quinolone-resistant Staphylococcus aureus CCARM 3519 assessed as reduction in bacterial cell growth incubated for 24 hrs by ELISA
Type: functional
Settings: CCARM 3519, 24 h
readout type: MIC

Qu. Which MIC is listed for O=C(O)C(Cc1c[nH]c2ccccc12)N1C(=O)/C(=C/c2ccc3cc(OCc4ccc(F)cc4)ccc3c2)SC1=S (stereo unspecified) ?
Ans. 2 µg/mL

Qu. Which MIC is listed for O=C(O)C(Cc1c[nH]c2ccccc12)N1C(=O)/C(=C/c2ccc3cc(OCc4ccccc4Cl)ccc3c2)SC1=S (stereo unspecified) ?
Ans. 4 µg/mL

Qu. Which MIC is listed for Cc1onc(-c2ccccc2)c1C(=O)N[C@@H]1C(=O)N2[C@@H]1SC(C)(C)[C@@H]2C(=O)O [OXACILLIN] ?
Ans. 1 µg/mL

Qu. Which MIC is listed for O=C(O)C(Cc1c[nH]c2ccccc12)N1C(=O)/C(=C/c2cccc(OCc3ccc(Cl)cc3)c2)SC1=S (stereo unspecified) ?
Ans. 4 µg/mL

Qu. Which MIC is listed for O=C(O)C(Cc1c[nH]c2ccccc12)N1C(=O)/C(=C/c2cccc(OCc3ccccc3)c2)SC1=S (stereo unspecified) ?
Ans. 8 µg/mL

Qu. Which MIC is listed for COc1ccc(COc2ccc3cc(/C=C4\SC(=S)N(C(Cc5c[nH]c6ccccc56)C(=O)O)C4=O)ccc3c2)cc1 (stereo unspecified) ?
Ans. 8 µg/mL

Qu. Which MIC is listed for COc1c(N2C[C@@H]3CCCN[C@@H]3C2)c(F)cc2c(=O)c(C(=O)O)cn(C3CC3)c12 [MOXIFLOXACIN] ?
Ans. 4 µg/mL

Qu. Which MIC is listed for O=C(O)C(Cc1c[nH]c2ccccc12)N1C(=O)/C(=C/c2cccc(OCc3ccc(Br)cc3)c2)SC1=S (stereo unspecified) ?
Ans. 4 µg/mL

Qu. Which MIC is listed for O=C(O)C(Cc1c[nH]c2ccccc12)N1C(=O)/C(=C/c2ccc(OCc3ccc(Cl)cc3Cl)cc2)SC1=S (stereo unspecified) ?
Ans. 16 µg/mL

Qu. Which MIC is listed for COc1cc(/C=C2\SC(=S)N(C(Cc3c[nH]c4ccccc34)C(=O)O)C2=O)ccc1OCc1ccc(C)cc1 (stereo unspecified) ?
Ans. 8 µg/mL

Qu. Which MIC is listed for Cc1ccc(COc2ccc3cc(/C=C4\SC(=S)N(C(Cc5c[nH]c6ccccc56)C(=O)O)C4=O)ccc3c2)cc1 (stereo unspecified) ?
Ans. 2 µg/mL

Qu. Which MIC is listed for O=C(O)C(Cc1c[nH]c2ccccc12)N1C(=O)/C(=C/c2ccc3cc(OCc4cccc(Cl)c4)ccc3c2)SC1=S (stereo unspecified) ?
Ans. 8 µg/mL

Qu. Which MIC is listed for O=C(O)C(Cc1c[nH]c2ccccc12)N1C(=O)/C(=C/c2ccc3cc(OCc4ccc(Br)cc4)ccc3c2)SC1=S (stereo unspecified) ?
Ans. 4 µg/mL

Qu. Which MIC is listed for O=C(O)C(Cc1c[nH]c2ccccc12)N1C(=O)/C(=C/c2ccc(OCc3ccccc3)cc2)SC1=S (stereo unspecified) ?
Ans. 8 µg/mL

Qu. Which MIC is listed for O=C(O)C(Cc1c[nH]c2ccccc12)N1C(=O)/C(=C/c2cccc(OCc3ccc(Cl)cc3Cl)c2)SC1=S (stereo unspecified) ?
Ans. 4 µg/mL

Qu. Which MIC is listed for COc1cc(/C=C2\SC(=S)N(C(Cc3c[nH]c4ccccc34)C(=O)O)C2=O)ccc1OCc1ccc(Cl)cc1Cl (stereo unspecified) ?
Ans. 2 µg/mL

* * *

Target: Tyrosine-protein phosphatase non-receptor type 1 (Homo sapiens, UniProt P18031)
Test: Inhibition of human recombinant GST-tagged PTP1B expressed in Escherichia coli BL21 (DE3) using pNPP as substrate measured for 2 mins by colorimetric analysis
readout type: IC50 (nM)
Please reply with the bare figure in nM and do not write the unit itself.

Qu. Which IC50 is listed for O=C(O)C(Cc1c[nH]c2ccccc12)N1C(=O)/C(=C/c2cccc(OCc3ccc(Cl)cc3Cl)c2)SC1=S (stereo not drawn) ?
Ans. 1700

Qu. Which IC50 is listed for O=C(O)C(Cc1c[nH]c2ccccc12)N1C(=O)/C(=C/c2cccc(OCc3ccccc3)c2)SC1=S (stereo not drawn) ?
Ans. 8230

Qu. Which IC50 is listed for O=C(O)C(Cc1c[nH]c2ccccc12)N1C(=O)/C(=C/c2ccc3cc(OCc4ccc(F)cc4)ccc3c2)SC1=S (stereo not drawn) ?
Ans. 450

Qu. Which IC50 is listed for COc1cc(/C=C2\SC(=S)N(C(Cc3c[nH]c4ccccc34)C(=O)O)C2=O)ccc1OCc1ccccc1 (stereo not drawn) ?
Ans. 5770

Qu. Which IC50 is listed for COc1cc(/C=C2\SC(=S)N(C(Cc3c[nH]c4ccccc34)C(=O)O)C2=O)ccc1OCc1ccc(Br)cc1 (stereo not drawn) ?
Ans. 3180

Qu. Which IC50 is listed for O=C(O)C(Cc1c[nH]c2ccccc12)N1C(=O)/C(=C/c2cccc(OCc3ccc(Br)cc3)c2)SC1=S (stereo not drawn) ?
Ans. 2700

Qu. Which IC50 is listed for Cc1ccc(COc2ccc(/C=C3\SC(=S)N(C(Cc4c[nH]c5ccccc45)C(=O)O)C3=O)cc2)cc1 (stereo not drawn) ?
Ans. 5930

Qu. Which IC50 is listed for O=C(O)C(Cc1c[nH]c2ccccc12)N1C(=O)/C(=C/c2ccc(OCc3ccc(Cl)cc3)cc2)SC1=S (stereo not drawn) ?
Ans. 2440

* * *

Target: Tyrosine-protein phosphatase non-receptor type 2 (Homo sapiens)
Sequence (P17706 whole entry, the tested form may be a part): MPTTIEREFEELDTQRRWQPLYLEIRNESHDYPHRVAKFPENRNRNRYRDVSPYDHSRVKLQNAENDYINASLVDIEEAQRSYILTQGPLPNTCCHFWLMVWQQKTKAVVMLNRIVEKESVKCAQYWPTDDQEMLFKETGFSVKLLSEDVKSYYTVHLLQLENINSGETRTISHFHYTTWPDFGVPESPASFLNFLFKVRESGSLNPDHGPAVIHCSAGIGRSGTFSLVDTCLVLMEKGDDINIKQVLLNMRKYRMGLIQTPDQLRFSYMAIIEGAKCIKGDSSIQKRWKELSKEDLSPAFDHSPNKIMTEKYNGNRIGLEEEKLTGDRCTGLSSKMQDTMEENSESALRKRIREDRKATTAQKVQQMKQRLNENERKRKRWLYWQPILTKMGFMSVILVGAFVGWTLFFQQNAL
Assay: Inhibition of human recombinant GST-tagged TCPTP (catalytic domain […] residues) expressed in Escherichia coli BL21 (DE3) using pNPP as substrate measured for 2 mins by colorimetric analysis
readout type: pIC50
By convention, pIC50 is the negative base-10 log of a molar concentration.

Qu. Which pIC50 is listed for Cc1ccc(COc2ccc3cc(/C=C4\SC(=S)N(C(Cc5c[nH]c6ccccc56)C(=O)O)C4=O)ccc3c2)cc1 (centres undefined) ?
Ans. 5.77

Qu. Which pIC50 is listed for O=C(O)C(Cc1c[nH]c2ccccc12)N1C(=O)/C(=C/c2ccc3cc(OCc4ccc(Br)cc4)ccc3c2)SC1=S (centres undefined) ?
Ans. 6.11

Qu. Which pIC50 is listed for O=C(O)C(Cc1c[nH]c2ccccc12)N1C(=O)/C(=C/c2ccc3cc(OCc4ccc(F)cc4)ccc3c2)SC1=S (centres undefined) ?
Ans. 5.95

Qu. Which pIC50 is listed for O=C(O)C(Cc1c[nH]c2ccccc12)N1C(=O)/C(=C/c2ccc3cc(OCc4ccc(Cl)cc4Cl)ccc3c2)SC1=S (centres undefined) ?
Ans. 5.74

* * *

Tested on: Staphylococcus aureus
Assay: Antibacterial activity against Methicillin-resistant Staphylococcus aureus CCARM 3506 assessed as reduction in bacterial cell growth incubated for 24 hrs by ELISA
Type: functional
Details: CCARM 3506, 24 h
readout type: MIC

Qu. Which MIC is listed for COc1cccc(COc2ccc3cc(/C=C4\SC(=S)N(C(Cc5c[nH]c6ccccc56)C(=O)O)C4=O)ccc3c2)c1 (centres undefined) ?
Ans. 16 µg/mL

Qu. Which MIC is listed for O=C(O)C(Cc1c[nH]c2ccccc12)N1C(=O)/C(=C/c2ccc3cc(OCc4ccc(Br)cc4)ccc3c2)SC1=S (centres undefined) ?
Ans. 4 µg/mL

Qu. Which MIC is listed for O=C(O)C(Cc1c[nH]c2ccccc12)N1C(=O)/C(=C/c2ccc3cc(OCc4ccccc4Cl)ccc3c2)SC1=S (centres undefined) ?
Ans. 4 µg/mL

Qu. Which MIC is listed for `CCn1cc(C(=O)O)c(=O)c2cc(F)c(N3CCNCC3)cc21` ?
Ans. 4 µg/mL

Qu. Which MIC is listed for COc1cc(/C=C2\SC(=S)N(C(Cc3c[nH]c4ccccc34)C(=O)O)C2=O)ccc1OCc1ccc(Cl)cc1 (centres undefined) ?
Ans. 4 µg/mL

Qu. Which MIC is listed for `O=C(O)CN1C(=O)/C(=C/c2ccc3cc(OCc4ccc(F)cc4)ccc3c2)SC1=S` ?
Ans. 2 µg/mL

Qu. Which MIC is listed for `Cc1onc(-c2ccccc2)c1C(=O)N[C@@H]1C(=O)N2[C@@H]1SC(C)(C)[C@@H]2C(=O)O` ?
Ans. > 64 µg/mL

Qu. Which MIC is listed for O=C(O)C(Cc1c[nH]c2ccccc12)N1C(=O)/C(=C/c2ccc3cc(OCc4ccc(Cl)cc4Cl)ccc3c2)SC1=S (centres undefined) ?
Ans. 8 µg/mL

Qu. Which MIC is listed for O=C(O)C(Cc1c[nH]c2ccccc12)N1C(=O)/C(=C/c2ccc(OCc3ccccc3)cc2)SC1=S (centres undefined) ?
Ans. 8 µg/mL

Qu. Which MIC is listed for O=C(O)C(Cc1c[nH]c2ccccc12)N1C(=O)/C(=C/c2ccc(OCc3ccc(Br)cc3)cc2)SC1=S (centres undefined) ?
Ans. 2 µg/mL

Qu. Which MIC is listed for O=C(O)C(Cc1c[nH]c2ccccc12)N1C(=O)/C(=C/c2ccc(OCc3ccc(Cl)cc3)cc2)SC1=S (centres undefined) ?
Ans. 4 µg/mL

Qu. Which MIC is listed for O=C(O)C(Cc1c[nH]c2ccccc12)N1C(=O)/C(=C/c2ccc(OCc3ccc(Cl)cc3Cl)cc2)SC1=S (centres undefined) ?
Ans. 8 µg/mL

Qu. Which MIC is listed for COc1ccccc1COc1ccc2cc(/C=C3\SC(=S)N(C(Cc4c[nH]c5ccccc45)C(=O)O)C3=O)ccc2c1 (centres undefined) ?
Ans. 8 µg/mL

Qu. Which MIC is listed for COc1ccc(COc2ccc3cc(/C=C4\SC(=S)N(C(Cc5c[nH]c6ccccc56)C(=O)O)C4=O)ccc3c2)cc1 (centres undefined) ?
Ans. 8 µg/mL

Qu. Which MIC is listed for COc1cc(/C=C2\SC(=S)N(C(Cc3c[nH]c4ccccc34)C(=O)O)C2=O)ccc1OCc1ccccc1 (centres undefined) ?
Ans. 8 µg/mL

Qu. Which MIC is listed for O=C(O)C(Cc1c[nH]c2ccccc12)N1C(=O)/C(=C/c2cccc(OCc3ccccc3)c2)SC1=S (centres undefined) ?
Ans. 8 µg/mL

Qu. Which MIC is listed for COc1c(N2CCNC(C)C2)c(F)cc2c(=O)c(C(=O)O)cn(C3CC3)c12 (centres undefined) ?
Ans. 2 µg/mL

Qu. Which MIC is listed for COc1cc(/C=C2\SC(=S)N(C(Cc3c[nH]c4ccccc34)C(=O)O)C2=O)ccc1OCc1ccc(Br)cc1 (centres undefined) ?
Ans. 4 µg/mL

Qu. Which MIC is listed for O=C(O)C(Cc1c[nH]c2ccccc12)N1C(=O)/C(=C/c2ccc3cc(OCc4cccc(Cl)c4)ccc3c2)SC1=S (centres undefined) ?
Ans. 4 µg/mL

Qu. Which MIC is listed for O=C(O)C(Cc1c[nH]c2ccccc12)N1C(=O)/C(=C/c2ccc3cc(OCc4ccc(F)cc4)ccc3c2)SC1=S (centres undefined) ?
Ans. 2 µg/mL

Qu. Which MIC is listed for COc1cc(/C=C2\SC(=S)N(C(Cc3c[nH]c4ccccc34)C(=O)O)C2=O)ccc1OCc1ccc(Cl)cc1Cl (centres undefined) ?
Ans. 2 µg/mL

Qu. Which MIC is listed for O=C(O)C(Cc1c[nH]c2ccccc12)N1C(=O)/C(=C/c2cccc(OCc3ccc(Cl)cc3)c2)SC1=S (centres undefined) ?
Ans. 4 µg/mL

Qu. Which MIC is listed for COc1cc(/C=C2\SC(=S)N(C(Cc3c[nH]c4ccccc34)C(=O)O)C2=O)ccc1OCc1ccc(C)cc1 (centres undefined) ?
Ans. 2 µg/mL

Qu. Which MIC is listed for O=C(O)C(Cc1c[nH]c2ccccc12)N1C(=O)/C(=C/c2cccc(OCc3ccc(Br)cc3)c2)SC1=S (centres undefined) ?
Ans. 8 µg/mL

Qu. Which MIC is listed for O=C(O)C(Cc1c[nH]c2ccccc12)N1C(=O)/C(=C/c2ccc3cc(OCc4ccc(Cl)cc4)ccc3c2)SC1=S (centres undefined) ?
Ans. 2 µg/mL

Qu. Which MIC is listed for O=C(O)C(Cc1c[nH]c2ccccc12)N1C(=O)/C(=C/c2ccc3cc(OCc4ccccc4)ccc3c2)SC1=S (centres undefined) ?
Ans. 8 µg/mL

Qu. Which MIC is listed for Cc1ccc(COc2ccc(/C=C3\SC(=S)N(C(Cc4c[nH]c5ccccc45)C(=O)O)C3=O)cc2)cc1 (centres undefined) ?
Ans. 8 µg/mL

Qu. Which MIC is listed for Cc1ccc(COc2ccc3cc(/C=C4\SC(=S)N(C(Cc5c[nH]c6ccccc56)C(=O)O)C4=O)ccc3c2)cc1 (centres undefined) ?
Ans. 8 µg/mL

Qu. Which MIC is listed for O=C(O)C(Cc1c[nH]c2ccccc12)N1C(=O)/C(=C/c2cccc(OCc3ccc(Cl)cc3Cl)c2)SC1=S (centres undefined) ?
Ans. 8 µg/mL

Data provenance is ChEMBL document CHEMBL4346701.
